Measurement description: Stability screening of freebase and selected salts of Formula I, 40° C. and 75% RH, weekly HPLC over 4 weeks
Condition summary: stored at 40° C. and 75% RH; 1 week

# Molecule, Unit descriptor, Stability, HPLC analysis, T = 1 week
rows = [
    ("COc1ccc(CN2CCN(c3ccc(-c4cc(-c5cnn(C)c5)cn5ncc(C#N)c45)cn3)CC2)cn1.O=C(O)C[C@H](O)C(=O)O [L-malic acid salt]", "%", 97.7),
    ("COc1ccc(CN2CCN(c3ccc(-c4cc(-c5cnn(C)c5)cn5ncc(C#N)c45)cn3)CC2)cn1.O=C(O)C[C@@H](O)C(=O)O [D-malic acid salt]", "%", 97.6),
    ("COc1ccc(CN2CCN(c3ccc(-c4cc(-c5cnn(C)c5)cn5ncc(C#N)c45)cn3)CC2)cn1.Cl [HCl salt]", "%", 99.3),
    ("COc1ccc(CN2CCN(c3ccc(-c4cc(-c5cnn(C)c5)cn5ncc(C#N)c45)cn3)CC2)cn1 [Freebase I]", "%", 97.3),
]
